Molecular target: p110α (PI3Kα) (Homo sapiens, UniProt P42336)
Sequence (P42336 whole entry): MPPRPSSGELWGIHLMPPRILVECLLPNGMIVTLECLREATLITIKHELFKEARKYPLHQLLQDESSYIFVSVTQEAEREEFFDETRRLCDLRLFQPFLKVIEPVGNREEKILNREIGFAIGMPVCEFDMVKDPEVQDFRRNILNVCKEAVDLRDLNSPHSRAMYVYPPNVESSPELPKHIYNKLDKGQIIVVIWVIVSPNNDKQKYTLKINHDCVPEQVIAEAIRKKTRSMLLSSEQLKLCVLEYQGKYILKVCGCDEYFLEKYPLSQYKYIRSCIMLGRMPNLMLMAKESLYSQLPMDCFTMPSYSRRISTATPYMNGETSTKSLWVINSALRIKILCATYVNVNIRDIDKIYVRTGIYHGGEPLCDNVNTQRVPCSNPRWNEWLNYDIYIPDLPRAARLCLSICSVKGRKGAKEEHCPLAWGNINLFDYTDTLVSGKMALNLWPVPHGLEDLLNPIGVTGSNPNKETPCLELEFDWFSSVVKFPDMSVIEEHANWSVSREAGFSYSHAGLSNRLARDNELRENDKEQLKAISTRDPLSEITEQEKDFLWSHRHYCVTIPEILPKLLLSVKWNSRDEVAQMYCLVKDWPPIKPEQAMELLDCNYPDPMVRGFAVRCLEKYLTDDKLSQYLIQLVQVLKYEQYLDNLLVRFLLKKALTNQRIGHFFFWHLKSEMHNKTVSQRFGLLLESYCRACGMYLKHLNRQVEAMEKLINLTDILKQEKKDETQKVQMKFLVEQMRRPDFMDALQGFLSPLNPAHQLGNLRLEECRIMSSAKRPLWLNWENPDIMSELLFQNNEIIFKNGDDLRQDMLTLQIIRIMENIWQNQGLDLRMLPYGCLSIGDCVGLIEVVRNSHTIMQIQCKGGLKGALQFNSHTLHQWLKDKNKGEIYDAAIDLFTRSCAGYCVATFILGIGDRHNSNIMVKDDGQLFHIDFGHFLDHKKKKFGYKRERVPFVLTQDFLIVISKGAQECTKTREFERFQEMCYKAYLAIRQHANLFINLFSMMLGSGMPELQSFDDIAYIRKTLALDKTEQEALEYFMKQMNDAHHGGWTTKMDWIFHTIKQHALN
Sequence (P27986 whole entry partner): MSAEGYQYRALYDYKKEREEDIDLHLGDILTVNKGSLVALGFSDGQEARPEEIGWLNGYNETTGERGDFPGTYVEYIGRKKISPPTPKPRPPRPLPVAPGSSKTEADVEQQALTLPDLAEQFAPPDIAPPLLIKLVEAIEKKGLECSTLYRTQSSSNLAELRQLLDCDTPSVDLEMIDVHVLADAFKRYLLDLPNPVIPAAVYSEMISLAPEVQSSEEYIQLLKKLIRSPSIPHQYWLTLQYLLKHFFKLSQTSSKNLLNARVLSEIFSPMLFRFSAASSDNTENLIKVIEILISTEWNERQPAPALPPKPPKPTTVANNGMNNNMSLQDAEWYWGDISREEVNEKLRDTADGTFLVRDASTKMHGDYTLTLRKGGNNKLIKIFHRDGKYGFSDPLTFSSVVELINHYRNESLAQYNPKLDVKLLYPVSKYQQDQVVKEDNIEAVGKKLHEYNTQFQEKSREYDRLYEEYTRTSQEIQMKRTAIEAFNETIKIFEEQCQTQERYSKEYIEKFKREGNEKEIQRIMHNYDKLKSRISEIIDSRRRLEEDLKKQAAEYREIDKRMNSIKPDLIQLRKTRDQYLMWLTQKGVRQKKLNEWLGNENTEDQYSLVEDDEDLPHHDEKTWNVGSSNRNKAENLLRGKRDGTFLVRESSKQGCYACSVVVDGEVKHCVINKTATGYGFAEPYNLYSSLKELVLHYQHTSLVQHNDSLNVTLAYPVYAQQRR
Experiment: Determination of kinetic constants (kinact, Ki) for p110α by LanthaScreen Technology
Assay type: binding
Conditions: read-out: kinact/Ki PI3Kα
Readout type: kinact/KI (M⁻¹ s⁻¹)
Write the answer as a number in M⁻¹ s⁻¹, unit excluded.

Check out these entries, answers already filled in.
Compound | Value
C=CC(=O)N1CCC(C(=O)N(C)CCC(=O)N2CCN(c3nc(-c4cnc(N)nc4C(F)F)nc(N4CCOCC4)n3)CC2)CC1 [Compound 57] | 26100
CC(C)=CC(=O)CCCCC(=O)N1CCN(c2nc(-c3cnc(N)nc3C(F)F)nc(N3CCOCC3)n2)CC1 [Compound 5] | 18700
C/C=C/C(=O)CCCC(=O)N1CCN(c2nc(-c3cnc(N)nc3C(F)F)nc(N3CCOCC3)n2)CC1 [Compound 20] | 183000

Let me check: C=CC(=O)N(C)CCCC(=O)N1CCN(c2nc(-c3cnc(N)nc3C(F)F)nc(N3CCOCC3)n2)CC1 [Compound 7] , system p110α (PI3Kα) (Homo sapiens, UniProt P42336), measured kinact/KI is 9600

Let me check: C=CC(=O)N1CCC(Cc2cccc(C(=O)N3CCN(c4nc(-c5cnc(N)nc5C(F)F)nc(N5CCOCC5)n4)CC3)c2)CC1 [Compound 101] , system p110α (PI3Kα) (Homo sapiens, UniProt P42336), measured kinact/KI is 14300

Let me check: C=CC(=O)N1CCC(C(=O)NCCC(=O)N2CCN(c3nc(-c4cnc(N)nc4C(F)F)nc(N4CCOCC4)n3)CC2)CC1 [Compound 48] , system p110α (PI3Kα) (Homo sapiens, UniProt P42336), measured kinact/KI is 18000

Let me check: C=CC(=O)N1CCC(CCC(=O)N2CCN(c3nc(-c4cnc(N)nc4C(F)F)nc(N4CCOCC4)n3)CC2)CC1 [Compound 40] , system p110α (PI3Kα) (Homo sapiens, UniProt P42336), measured kinact/KI is 34300

Let me check: C=CC(=O)N1CCC(C(=O)NCCN2CCN(c3nc(-c4cnc(N)nc4C(F)F)nc(N4CCOCC4)n3)CC2)CC1 [Compound 62] , system p110α (PI3Kα) (Homo sapiens, UniProt P42336), measured kinact/KI is 11600
